- assay text: NCI Yeast Anticancer Drug Screen. Data for the rad50 strain (AID 155);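 further: 0% = growth of vehicle-only cultures of the same strain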
- particulars: S. cerevisiae rad50 strain growth inhibition; at 5.0 µM (retest, dose inferred, filed as 0.5); active compounds read high
The panel holds about 79,000 compounds, 15% with a hit somewhere; the sample as a whole holds those more often.
growth inhibition vs 70%: at or above is 1, below is -1.

compound	group label
Oc1c(Cl)cc(Cl)cc1Cl.[Cu+2]	-1
c1cs[c]([Hg][c]2cccs2)c1	1
ClCc1ccncc1	-1

(Q) Does COc1c(Cl)[c]([Hg][O]C(C)=O)c(NCC(C)=O)c(OC)[c]1[Hg][O]C(C)=O have a reported growth inhibition of at least 70%?
(A) 1

(Q) Evaluate COC12c3c(C)cc(O)c4c(=O)occ(c34)C(=O)C1C13COC(=O)c4c(O)cc(C)c(c41)C(=O)C2C3OC(C)=O (stereo unspecified) : growth inhibition at minimum 70%?
(A) -1

(Q) Is it the case that O=C(CBr)OC1CCCCC1 has growth inhibition reaching or exceeding 70%?
(A) 1

* * *

- assay text: NCI Yeast Anticancer Drug Screen. Data for the cln2 rad14 strain (AID 165);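 further: 0% = growth equal to vehicle treated cultures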
- particulars: S. cerevisiae cln2 rad14 strain, at 50.0 µM, active compounds read high
About 79,000 compounds went through this panel and 15% of them were active in at least one assay; those are over-represented in the sample as a whole. Activity calls are given as the source filed them. No stated cut-off is given here; in the data, active means growth inhibition above about 70%; inactive means the rest.
measure: growth inhibition

compound	measure	reported measurement
CCCCOP(=O)(NCCOC)OCCCC	growth inhibition	6.9% (inactive)
COc1ccc(/C=C\[N+](=O)[O-])cc1OC	growth inhibition	99% (active)
COc1ccc(CC(N)c2ccccc2)cc1OC (configuration not stated)	growth inhibition	-21.1% (inactive)
CCOP(=S)(OCC)Oc1ccccc1	growth inhibition	-7.6% (inactive)
COc1cc(/C=C(/C)[N+](=O)[O-])c([N+](=O)[O-])cc1OC	growth inhibition	14.8% (inactive)
CC(=O)NC(ON1C(=O)COc2ccccc21)C(Cl)(Cl)Cl (configuration not stated)	growth inhibition	10.2% (inactive)

(Q) Query (compound): Cc1cc(N(C)CCCl)ccc1N=Nc1ccccc1C(=O)O ; field requested: growth inhibition
(A) 6% (inactive)

(Q) What does the data say about its growth inhibition? Entry: C[C@]12C=CC(=O)C=C1CC[C@@H]1[C@@H]2C(=O)C[C@]2(C)C(=O)CC[C@@H]12
(A) -1.85% (inactive)

(Q) Sample COc1cc(C(N)Cc2ccccc2)ccc1O (configuration not stated) — what was its growth inhibition?
(A) -33.1% (inactive)

(Q) Query: growth inhibition; subject: O=C1C2CCN(CC2)C1(CO)CO
(A) -58.1% (inactive)

(Q) I would be grateful if you could share the reported growth inhibition for CC(=O)[O][Pb]([O]C(C)=O)([O]C(C)=O)[c]1ccccc1 .
(A) 89.2% (active)

(Q) Report growth inhibition for CC(=O)OC1(C#N)CC2OC1C1NC21 (configuration not stated) please.
(A) 8.8% (inactive)

* * *

- assay text: NCI Yeast Anticancer Drug Screen. Data for the sgs1 mgt1 strain (AID 161);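 further: 0% = growth of cultures given vehicle only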
- particulars: S. cerevisiae sgs1 mgt1 strain, at 50.0 µM (retest, dose inferred, filed as 5.0)
The panel holds about 79,000 compounds, 15% with a hit somewhere; the sample as a whole holds those more often. Calls of active or inactive are those of the source. No stated cut-off is given here; in the data, active means growth inhibition above about 70%; inactive means the rest.
Pick one and only one: active, inactive

Some solved entries appear below for comparison.
molecule	group label
CC(=O)[O][Hg][c]1ccc(N)[c]([Hg][O]C(C)=O)c1	active
CC(=O)[O][Sn]([CH3])([CH3])[c]1ccccc1	active
CC1(C)CC2(c3ccccc3)CC(c3ccccc3)C1C(C(=O)O)C2C(=O)O (stereo not given)	active
O=[N+]([O-])c1cc(-c2ccccc2)ccc1O	inactive
CC1=C2C(=CC(C)(C)[C@@H]2O)C(=O)[C@](C)(O)C12CC2	active

(Q) Record lookup: outcome of this test for Cc1ccc2c(-c3ccccc3)c3ccccc3[s+]c2c1 ?
(A) active

(Q) Please state the recorded outcome for this molecule: CC[C@@H](C)[C@@H]1NC(=O)C(NC(=O)C(CC(C)C)N(C)C(=O)C2CCCN2C(=O)C(C)O)C(C)OC(=O)C(Cc2ccc(OC)cc2)N(C)C(=O)C2CCCN2C(=O)C(CC(C)C)NC(=O)C(C)C(=O)C(C(C)C)OC(=O)C[C@H]1O (stereo not given in full)
(A) active

(Q) How was CCc1cc(C)cc2[n+]1CC=C2 classified in this test?
(A) active

(Q) Name the outcome recorded for CN=C(N)N/N=C(\C)c1ccc2sc3ccc(/C(C)=N/NC(N)=NC)cc3c2c1 in the assay.
(A) inactive

(Q) What classification did O=S(=O)(F)c1cc(Cl)c(O)cc1Cl end up with in this test?
(A) inactive

* * *

- assay text: NCI Yeast Anticancer Drug Screen. Data for the mlh1 rad18 strain (AID 175)
- particulars: S. cerevisiae mlh1 rad18 strain growth inhibition; at 50.0 µM; active compounds read high
Compounds without any hit were thinned out: in the full panel of roughly 79,000, 15% have a hit.
Classify as follows. Reported growth inhibition greater than or equal to 10%: Condition met. Reported growth inhibition below: Condition not met.

compound	group label
C1CCC(NCC2CCCO2)CC1 (stereo unspecified)	Condition met

(Q) Quick check, growth inhibition >= 10%? OC1=C2CCCCCC2=[N+]2CCCCC2C1 (stereo unspecified)
(A) Condition met

(Q) Does the reported growth inhibition for CC1(C(=O)O)C2[Se]c3[se]ccc3C2C1(C)C(=O)O (stereo unspecified) fall at or above the 10% mark?
(A) Condition not met

(Q) Is growth inhibition for N#CC(c1ccccc1)N1CCCN(C(C#N)c2ccccc2)C1c1ccc(N(CCCl)CCCl)cc1 (stereo unspecified) at or above 10%?
(A) Condition not met

* * *

- assay text: NCI Yeast Anticancer Drug Screen. Data for the mlh1 rad18 strain (AID 175)
- particulars: S. cerevisiae mlh1 rad18 strain growth inhibition; at 50.0 µM (retest, dose inferred, filed as 5.0); active compounds read high
This is part of a sample that, as a whole, favours compounds with a hit. Of some 79,000 tested, about 15% had one in any assay.
Respond with Y for growth inhibition values of 90% and above, N for values below.

Previously resolved entries follow.
molecule	group label
COC(=O)c1ccc([As]=O)cc1N (stereo unspecified)	N
COc1cc(C2c3cc4c(cc3OC(N3CCOCC3)C2C)OCO4)cc(OC)c1OC (stereo unspecified)	N
CC1(C)CC2(c3ccccc3)CC(c3ccccc3)C1C(C(=O)O)C2C(=O)O (stereo unspecified)	Y
OCC1N2CCC(CC2)C1(O)O (stereo unspecified)	N
Cc1cc(CCN)c(C)c2c1oc1ccccc12	Y

(Q) Kindly determine if growth inhibition recorded for CC(=O)OC1=CC2=CC[C@H]3[C@@H]4CCC(=O)[C@@]4(C)CC(=O)[C@]3(S)[C@@]2(C)CC1 is above or exactly 90%.
(A) N

(Q) Answer whether growth inhibition of [Au+].[Au+].[Au+].[c-]1nccn1Cc1ccccc1.[c-]1nccn1Cc1ccccc1.[c-]1nccn1Cc1ccccc1 is greater than or equal to 90%.
(A) Y

(Q) Check if growth inhibition >= 90% (inclusive). Item: COc1ccc(P2(=S)Oc3ccc(C(c4ccccc4)(c4ccccc4)c4ccccc4)cc3O2)cc1 (stereo unspecified)
(A) Y

(Q) Hi team, for O=C(N/N=C/c1cc(Br)cc(Br)c1[O-])c1ccccc1O.O=C(N/N=C/c1cc(Br)cc(Br)c1[O-])c1ccccc1O.[Ni+2] , is the recorded growth inhibition at or above 90%?
(A) Y

(Q) growth inhibition >= 90% for CN(CCCl)c1ccc(/C=C/C2=[N+](C)c3ccccc3C2(C)C)cc1 ?
(A) Y

* * *

- assay text: NCI Yeast Anticancer Drug Screen. Data for the rad50 strain (AID 155);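 further: 0% = growth of vehicle-only cultures of the same strain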
- particulars: S. cerevisiae rad50 strain growth inhibition; at 5.0 µM (retest, dose inferred, filed as 0.5); active compounds read high
- Description: Growth inhibition of yeast strains with defined genetic alterations is measured as a screen for potential anti-cancer activity. Selected strains with alterations in DNA damage repair or cell cycle control were exposed to compounds and growth inhibition was measured relative to vehicle treated controls. The strain used in this assay is rad50
Compounds without any hit were thinned out: in the full panel of roughly 79,000, 15% have a hit.
Catalogue of compounds with associated growth inhibition
Reply with just the number (in %).

Some entries whose results are on file:
compound	growth inhibition, %
O=[N+]([O-])c1ccc2c3c(cccc13)CC2	15
O=[N+]([O-])/C=C/c1ccccc1Cl	91
Cc1ccc(OP(=O)(Oc2ccc(C)cc2)Oc2ccc(C)cc2)cc1.Cc1ccc(OP(=O)(Oc2ccc(C)cc2)Oc2ccc(C)cc2)cc1.Cc1ccc(OP(=O)(Oc2ccc(C)cc2)Oc2ccc(C)cc2)cc1.Cc1ccc(OP(=O)(Oc2ccc(C)cc2)Oc2cccc(C)c2)cc1.[Cd+2].[O-][Cl+3]([O-])([O-])O	12
CN(C)c1ccc(C(c2c(O)c3ccccc3oc2=O)c2c(O)c3ccccc3oc2=O)cc1	0
NC(=O)c1ccc(C(=O)Nc2ccc([As](=O)(O)O)cc2)cc1	30

(Q) For N#Cc1cc([N+](=O)[O-])c(Cl)c([N+](=O)[O-])c1 , what is its reported growth inhibition?
(A) 52

(Q) Query: growth inhibition; subject: CC1c2c(n(C)c3ccccc23)C2CCC3(CO3)C1N2Cc1ccccc1 (configuration not stated)
(A) 25

(Q) Bench note: what growth inhibition did Cc1ccc(NCc2ccccc2)cc1[As](=O)(O)O show?
(A) -1

(Q) Fill in the blank: the reported growth inhibition of CC(C)C1(NC(=O)C2CC3c4cccc5[nH]cc(c45)CC3N(C)C2)OC2(O)C3CCCN3C(=O)C(Cc3ccccc3)N2C1=O (configuration not stated) is ____.
(A) -26

(Q) growth inhibition lookup needed for O=S(=O)(F)c1cc(Cl)c(O)cc1Cl , thanks.
(A) -143

(Q) Suppose we examine the compound O=C1C=Cc2ccccc2C1=O ; what growth inhibition value has been reported?
(A) 29

(Q) Can you share its growth inhibition? I mean this compound: C[C@@H]1C[C@@H]([C@H](O)CC2CC(=O)NC(=O)C2)C(=O)[C@@H](C)C1
(A) 95

(Q) What does the data say about its growth inhibition? Entry: C[PH+](C)C.C[PH+](C)C.[Au]
(A) 36

(Q) For the compound CC(=O)c1cc2c(cc1O)C(C)(C)CCC2(C)C , what growth inhibition is on record?
(A) 3

(Q) Any idea what its growth inhibition is? The compound is O=[N+]([O-])c1ccc(C2C3CC4C(OOC42)C3I)cc1 (configuration not stated)
(A) 0

(Q) Endpoint output: growth inhibition of NC[CH2][Sn]([c]1ccccc1)([CH]1CCCCC1)[CH]1CCCCC1 . Value?
(A) 99
